B1: mRNA-splicing (parent)
chain: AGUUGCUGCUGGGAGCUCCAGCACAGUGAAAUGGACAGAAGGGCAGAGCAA

# Variants of: B1
# Method Summary: exon inclusion enrichment index; higher = more inclusion; WT1 exon 5 minigene, HEK293
Below, each entry is listed alongside its reported exon inclusion enrichment index.
Measurement Label: exon inclusion enrichment index

INSERT INTO assay_data (mutation_list, measurement_label, recorded_value) VALUES
  ('G5C C6G U7C U10C G42U G43A', 'exon inclusion enrichment index', 4.08),
  ('G5A C6G U7G C9A G12C G13A', 'exon inclusion enrichment index', 0.00586),
  ('G8U C9U', 'exon inclusion enrichment index', 0.3),
  ('C6A U7C C9A U10C G46A A47U', 'exon inclusion enrichment index', 2.94),
  ('G5C C6A U7C G8A U10A A31G U32G', 'exon inclusion enrichment index', 0.0429),
  ('G5C C6U G8C C9U U10C A40U', 'exon inclusion enrichment index', 1.67),
  ('G5U G8U C9U U10A G11C', 'exon inclusion enrichment index', 0.155),
  ('U3C U4C C6A U7A C9A U10A', 'exon inclusion enrichment index', 1.44),
  ('U3A U4A C6A U7C C9A U10C', 'exon inclusion enrichment index', 1.08),
  ('C6A U7A C9A U10A G21U C22A', 'exon inclusion enrichment index', 0.136),
  ('G5C C6G U7G G8C U10C', 'exon inclusion enrichment index', 1.57),
  ('G5C C6A U7C G8A U10A C19U A20C', 'exon inclusion enrichment index', 0.0561),
  ('G5C C6U G8C C9U U10C A40C G41C', 'exon inclusion enrichment index', 2.97),
  ('G2C G5C C6A U7C G8A U10A', 'exon inclusion enrichment index', 0.0904),
  ('U7A C9A U10A', 'exon inclusion enrichment index', 0.589),
  ('G5A C6U U7A G8U C9A A25U G26C', 'exon inclusion enrichment index', 0.157),
  ('G5C C6A U7C G8A U10A G13U A14C', 'exon inclusion enrichment index', 0.0603),
  ('G5A C6U U7A G8U C9A G41U G42U', 'exon inclusion enrichment index', 0.0785),
  ('G13C A14C', 'exon inclusion enrichment index', 0.19),
  ('G5A U7C G8A U10C G13A A14G', 'exon inclusion enrichment index', 2.19),
  ('G5A U7C G8A U10C C22U A23G', 'exon inclusion enrichment index', 2.69),
  ('G5C C6A U7A U10C', 'exon inclusion enrichment index', 3.35);
